tested on: Plasmodium falciparum; assay: microbe, parasite or virus in culture; settings: F08B40, 72 h
parameter measured: IC50 (nM)

• C=C[C@H]1CN2CC[C@H]1C[C@H]2[C@H](O)c1ccnc2ccc(OC)cc12 = 260

* * *

system: Plasmodium falciparum; assay: microbe, parasite or virus in culture; conditions: F07-8, 72 h
parameter measured: IC50 (nM)

- C=C[C@H]1CN2CC[C@H]1C[C@H]2[C@H](O)c1ccnc2ccc(OC)cc12: 874

* * *

test system: Plasmodium falciparum; experiment: microbe, parasite or virus in culture; conditions: K1, 72 h
pIC50: −log10 of the molar value.
parameter measured: pIC50

* C=C[C@H]1CN2CC[C@H]1C[C@H]2[C@H](O)c1ccnc2ccc(OC)cc12 | 6.39
